- System: KRAS patient-derived spheroids with HUVEC/MSC, viability;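 further: spheroids exposed to agents for 7 days; 100% = DMSO vehicle control viability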
- Protocol: Anticancer human tumor 323965-272-R-J2-PDC patient-derived pancreatic carcinoma cell line growth inhibition [KRAS2]
- Measurement Parameters: second compound 0.1 µM; first compound 0.316 µM; active compounds read low
// map viability, T/C to label using zone 1 = under 40%, zone 2 = from 40% up to 70%, zone 3 = 70% and over

Please review the entries below; each comes with its answer.
Compound: CC1COCCN1c1cc(-c2ccnn2C)c2ccnc(-c3ccn[nH]3)c2n1 (stereo unspecified) + C=CC(=O)N1CCN(c2nc(=O)n(-c3c(C)ccnc3C(C)C)c3nc(-c4c(O)cccc4F)c(F)cc23)C(C)C1
Group Label: zone 1
//
Compound: CC1(C)CCC(CN2CCN(c3ccc(C(=O)NS(=O)(=O)c4ccc(NCC5CCOCC5)c([N+](=O)[O-])c4)c(Oc4cnc5[nH]ccc5c4)c3)CC2)=C(c2ccc(Cl)cc2)C1 + COc1cc2nc(C)nc(NC(C)c3cc(N)cc(C(F)(F)F)c3)c2cc1OC1CCOC1
Group Label: zone 2
//
Compound: COc1cc2nccc(Oc3ccc(NC(=O)C4(C(=O)Nc5ccc(F)cc5)CC4)cc3)c2cc1OC + COc1cc2nc(C)nc(NC(C)c3cc(N)cc(C(F)(F)F)c3)c2cc1OC1CCOC1
Group Label: zone 3
//
Compound: O=C(c1cc(Cc2n[nH]c(=O)c3ccccc23)ccc1F)N1CCN(C(=O)C2CC2)CC1 + COc1cc2nc(C)nc(NC(C)c3cc(N)cc(C(F)(F)F)c3)c2cc1OC1CCOC1
Group Label: zone 3
//
Compound: O=C(c1cc(Cc2n[nH]c(=O)c3ccccc23)ccc1F)N1CCN(C(=O)C2CC2)CC1 + C=CC(=O)N1CCN(c2nc(=O)n(-c3c(C)ccnc3C(C)C)c3nc(-c4c(O)cccc4F)c(F)cc23)C(C)C1
Group Label: zone 2

// return the class label for CC1OCC2(CCN(c3cnc(Sc4ccnc(N)c4Cl)c(N)n3)CC2)C1N (stereo unspecified) + COc1cc2nc(C)nc(NC(C)c3cc(N)cc(C(F)(F)F)c3)c2cc1OC1CCOC1
zone 2

// return the class label for COC(=O)c1ccc2c(C(=Nc3ccc(N(C)C(=O)CN4CCN(C)CC4)cc3)c3ccccc3)c(O)[nH]c2c1 + CC1OCC2(CCN(c3cnc(Sc4ccnc(N)c4Cl)c(N)n3)CC2)C1N
zone 3

// return the class label for CC1COCCN1c1cc(-c2ccnn2C)c2ccnc(-c3ccn[nH]3)c2n1 (stereo unspecified) + CNCc1ccccc1-c1csc(C(C)Nc2nc(C)nc3cc(OC)c(OC)cc23)c1
zone 1

// return the class label for COc1cc(Nc2ncc3c(n2)-c2ccc(Cl)cc2C(c2c(F)cccc2OC)=NC3)ccc1C(=O)O + C=CC(=O)N1CCN(c2nc(OCC3CCCN3C)nc3c2CCN(c2cccc4cccc(C)c24)C3)CC1CC#N
zone 1

// return the class label for CC1OCC2(CCN(c3cnc(Sc4ccnc(N)c4Cl)c(N)n3)CC2)C1N (stereo unspecified) + CNCc1ccccc1-c1csc(C(C)Nc2nc(C)nc3cc(OC)c(OC)cc23)c1
zone 2

Cited source: PubChem BioAssay AID1963869
